This collection of values is drawn from PubChem BioAssay (NCATS).

- Procedure summary: Cell Viability - LYMP2-022 (AID 987);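 further: cells exposed to compound for 24 hr; 0% = DMSO alone and full effect = tetraoctylammonium bromide at 92 µM; nearly all actives have a fitted effect of over 55% in size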
- Condition summary: LYMP2-022 lymphoblastoid cell viability; series mostly up to 92.2 µM
Results filed as inconclusive are left out. Activity calls are given as the source filed them. The call rests on the fitted dose curve; in most records, active means well fitted cell-killing curve with a large enough effect; inconclusive means small, poorly fitted or top-dose-only effect; inactive means flat fitted curve, though single readings scatter.
The reply should name one outcome from label 1 = active, label 0 = inactive

Some entries whose results are on file:
Any idea what this test logged for Cc1cc(C)cc(OP(=O)(Oc2cc(C)cc(C)c2)Oc2cc(C)cc(C)c2)c1 ?
label 0

Follow-up item: CCOP(=S)(OCC)SCCSCC
label 0

Same lookup for CC1CC(=O)O1 (centres undefined) , please.
label 0

Note, next up: O=[N+]([O-])c1ccccc1O
label 0

O=P(OCCCl)(OCCCl)OCCCl ?
label 0

Others:
Query: recorded result category for O=[N+]([O-])c1c(Cl)c(Cl)c(Cl)c(Cl)c1Cl in this test
label 0

Please do the same for ClP(Cl)(Cl)(Cl)Cl as well.
label 0

Oc1ccc(Cl)c(Cl)c1 ?
label 0

Would you mind doing CC(C)Br as well?
label 0
